Recorded growth inhibition values for a group of compounds are listed next.
# ASSAY REMARKS: NCI Yeast Anticancer Drug Screen. Data for the cln2 rad14 strain (AID 165);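 note: 0% = growth equal to vehicle treated cultures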
# EXPERIMENTAL CONTEXT: S. cerevisiae cln2 rad14 strain, at 50.0 µM, hits give high values
About 79,000 compounds went through this panel and 15% of them were active in at least one assay; those are over-represented in the sample as a whole.

{"COMPOUND": "CCCCCC(=O)NCCCOC", "UNIT ANNOTATION": "%", "growth inhibition": -46.4}
{"COMPOUND": "N#CN=C(N)NC(=O)/C=C/C=C/c1ccc(Cl)cc1", "UNIT ANNOTATION": "%", "growth inhibition": 9.8}
{"COMPOUND": "Cc1ccc(N=C2OC(=O)c3ccccc32)cc1", "UNIT ANNOTATION": "%", "growth inhibition": -39.5}
{"COMPOUND": "CC1CC/C(=C\\c2ccccc2)C(=O)/C1=C/c1ccccc1 (stereo not drawn)", "UNIT ANNOTATION": "%", "growth inhibition": 9.45}
{"COMPOUND": "Cc1ccc(S(=O)(=O)NC(CCC(=O)NN)C(=O)NN)cc1 (stereo not drawn)", "UNIT ANNOTATION": "%", "growth inhibition": 5.95}
{"COMPOUND": "Cc1cc(S(=O)(=O)Nc2nc(N)nc(N3CCCCC3)n2)c(S)cc1Cl", "UNIT ANNOTATION": "%", "growth inhibition": -7.15}
{"COMPOUND": "O=C(Cn1c(=O)oc2ccc(C(=O)c3ccccc3Cl)cc21)c1ccc([N+](=O)[O-])cc1", "UNIT ANNOTATION": "%", "growth inhibition": -8.45}
{"COMPOUND": "CCN(CC)CCNc1ccc(N)c2sc3ccccc3c(=O)c12", "UNIT ANNOTATION": "%", "growth inhibition": -8.25}
{"COMPOUND": "CCOC(=O)C(=O)C(C(=O)OCC)C(C)C(=O)OCC (stereo not drawn)", "UNIT ANNOTATION": "%", "growth inhibition": -41.1}
{"COMPOUND": "COc1cccc(N2C(=O)[C@H]3[C@H]4CC(C(C)(C)C)CC[C@H]4c4c([nH]c5ccccc45)[C@H]3C2=O)c1 (stereo partly drawn)", "UNIT ANNOTATION": "%", "growth inhibition": 31.7}
{"COMPOUND": "Cc1noc(NC2=CC(=O)C(=O)c3ccccc32)c1C", "UNIT ANNOTATION": "%", "growth inhibition": 8}
{"COMPOUND": "O=C(/C=C/CC(O)(c1ccccc1)c1ccccc1)Nc1ccccc1Cl", "UNIT ANNOTATION": "%", "growth inhibition": 2.5}
{"COMPOUND": "N#C/C(=C/c1cccs1)c1ccc(Cl)cc1", "UNIT ANNOTATION": "%", "growth inhibition": -21.1}
{"COMPOUND": "CCc1ccccc1NOC", "UNIT ANNOTATION": "%", "growth inhibition": -7.15}
{"COMPOUND": "O=C(Nc1ccc(Cl)cc1)c1cc2cc(N=Nc3ccc(Br)cc3)ccc2oc1=O", "UNIT ANNOTATION": "%", "growth inhibition": -1.65}
{"COMPOUND": "CCc1nc2c(cnn2C)c(=O)n1-c1ccccc1", "UNIT ANNOTATION": "%", "growth inhibition": 3.9}
{"COMPOUND": "CCN(CC)CCCn1c(-c2ccccc2)ccc1-c1ccccc1", "UNIT ANNOTATION": "%", "growth inhibition": -16.4}
{"COMPOUND": "CCCCSc1n[nH]c(C2CCC(=O)N2Cc2ccccc2)n1 (stereo not drawn)", "UNIT ANNOTATION": "%", "growth inhibition": -12.9}
{"COMPOUND": "Cc1ccc2occ(/C=N/NC(N)=S)c(=O)c2c1", "UNIT ANNOTATION": "%", "growth inhibition": 0.6}
{"COMPOUND": "Nc1ncnc2c1ncn2CCCCC(=O)O", "UNIT ANNOTATION": "%", "growth inhibition": -2.1}
{"COMPOUND": "NC(CSSCC(NC(=O)CNC(=O)OCc1ccccc1)C(=O)O)C(=O)O (stereo not drawn)", "UNIT ANNOTATION": "%", "growth inhibition": -62.8}
{"COMPOUND": "CC1=C/C(=C(/c2cccc(S(=O)(=O)O)c2)c2cc(C)c(O)c(C(=O)O)c2)C=C(C(=O)O)C1=O", "UNIT ANNOTATION": "%", "growth inhibition": 25.2}
{"COMPOUND": "O=P(O)(OCCOc1ccccc1)OCCOc1ccccc1", "UNIT ANNOTATION": "%", "growth inhibition": -24.6}
{"COMPOUND": "Cn1c(NCCN2CCCCC2)c(C(=O)/C=C/c2ccccc2)c(=O)n(C)c1=O", "UNIT ANNOTATION": "%", "growth inhibition": 17.6}
{"COMPOUND": "Cc1ccc(S(=O)(=O)Nc2cccc3c(=O)[nH]cnc23)cc1", "UNIT ANNOTATION": "%", "growth inhibition": -37.2}
{"COMPOUND": "CCC1(CN(C)C)CC/C(=C\\c2ccc(OC)cc2)C1=O (stereo not drawn)", "UNIT ANNOTATION": "%", "growth inhibition": -6.1}
{"COMPOUND": "CCC(CC)(CO)CO", "UNIT ANNOTATION": "%", "growth inhibition": 16.1}
{"COMPOUND": "CCOC(=O)c1nc2ccccc2nc1Nc1ccc(OC)c(OC)c1", "UNIT ANNOTATION": "%", "growth inhibition": -15.6}
{"COMPOUND": "CC12CCC(CC1=O)C2(C)CCC(N)=O (stereo not drawn)", "UNIT ANNOTATION": "%", "growth inhibition": -11.7}
{"COMPOUND": "CC(C)NC(=O)OCc1c(COC(=O)NC(C)C)c2cccn2c2c1cnn2-c1ccccc1", "UNIT ANNOTATION": "%", "growth inhibition": -3.7}
{"COMPOUND": "CCCn1cc2c(=O)[nH]c(SC)nc2n1", "UNIT ANNOTATION": "%", "growth inhibition": -13.1}
{"COMPOUND": "CC1=C(C)Cc2c(-c3ccccc3)oc(-c3ccccc3)c2C1", "UNIT ANNOTATION": "%", "growth inhibition": 25.8}
{"COMPOUND": "O=C1CCC(N2C(=O)c3ccccc3C2=O)C(=O)O1 (stereo not drawn)", "UNIT ANNOTATION": "%", "growth inhibition": -38}
{"COMPOUND": "NC(=O)c1[nH]c(COCCO)nc1N", "UNIT ANNOTATION": "%", "growth inhibition": -14.9}
{"COMPOUND": "COc1ccccc1/C=C/C(=O)N1CCC2(CC1)C(=O)N(C)CN2c1ccccc1", "UNIT ANNOTATION": "%", "growth inhibition": -15.1}
{"COMPOUND": "Fc1ccc(Cl)c(-c2nc3ccccc3[nH]2)c1", "UNIT ANNOTATION": "%", "growth inhibition": 2.35}
{"COMPOUND": "c1ccc(-c2c3ccccc3cc3c2ccc2ccccc23)cc1", "UNIT ANNOTATION": "%", "growth inhibition": 9.25}
{"COMPOUND": "[N-]=[N+]=CC(=O)C(CN)(Cc1ccccc1)c1ccc(Cl)cc1 (stereo not drawn)", "UNIT ANNOTATION": "%", "growth inhibition": -31.9}
{"COMPOUND": "Cc1ccc(P(=O)(O)O)c([N+](=O)[O-])c1", "UNIT ANNOTATION": "%", "growth inhibition": -7.2}
{"COMPOUND": "C(=N\\c1nnc2ccccn12)/c1ccccc1", "UNIT ANNOTATION": "%", "growth inhibition": -9.6}
{"COMPOUND": "O=C(CCc1ccccc1)NC(=S)Nc1cc(C(F)(F)F)ccc1Cl", "UNIT ANNOTATION": "%", "growth inhibition": -41.8}
{"COMPOUND": "COC(=O)c1ccccc1C1CN=NC12Cc1c(C)cccc1C2=O (stereo not drawn)", "UNIT ANNOTATION": "%", "growth inhibition": -7.1}
{"COMPOUND": "CSc1nnc2c3ccccc3ccn12", "UNIT ANNOTATION": "%", "growth inhibition": -3.3}
{"COMPOUND": "O=C1OC(=O)c2ccc([N+](=O)[O-])c3c(C(=O)O)ccc1c23", "UNIT ANNOTATION": "%", "growth inhibition": -1.65}
{"COMPOUND": "O=[N+]([O-])c1ccc2c(c1)Sc1ccccc1N2", "UNIT ANNOTATION": "%", "growth inhibition": -21.8}
{"COMPOUND": "CN(C)Cc1ccccc1C(=C(c1ccccc1)c1ccccc1)c1ccccc1", "UNIT ANNOTATION": "%", "growth inhibition": -23.6}
{"COMPOUND": "CCCCCCCCCCCCCCC(O)CO (stereo not drawn)", "UNIT ANNOTATION": "%", "growth inhibition": -102}
{"COMPOUND": "c1c2c(cc3c1OCN(C1CC1)C3)OCN(C1CC1)C2", "UNIT ANNOTATION": "%", "growth inhibition": -19.2}
